The molecules listed here are annotated with their IC50.
Target: Rac GTPase-activating protein 1 (Homo sapiens, UniProt Q9H0H5)
Sequence (Q9H0H5 whole entry): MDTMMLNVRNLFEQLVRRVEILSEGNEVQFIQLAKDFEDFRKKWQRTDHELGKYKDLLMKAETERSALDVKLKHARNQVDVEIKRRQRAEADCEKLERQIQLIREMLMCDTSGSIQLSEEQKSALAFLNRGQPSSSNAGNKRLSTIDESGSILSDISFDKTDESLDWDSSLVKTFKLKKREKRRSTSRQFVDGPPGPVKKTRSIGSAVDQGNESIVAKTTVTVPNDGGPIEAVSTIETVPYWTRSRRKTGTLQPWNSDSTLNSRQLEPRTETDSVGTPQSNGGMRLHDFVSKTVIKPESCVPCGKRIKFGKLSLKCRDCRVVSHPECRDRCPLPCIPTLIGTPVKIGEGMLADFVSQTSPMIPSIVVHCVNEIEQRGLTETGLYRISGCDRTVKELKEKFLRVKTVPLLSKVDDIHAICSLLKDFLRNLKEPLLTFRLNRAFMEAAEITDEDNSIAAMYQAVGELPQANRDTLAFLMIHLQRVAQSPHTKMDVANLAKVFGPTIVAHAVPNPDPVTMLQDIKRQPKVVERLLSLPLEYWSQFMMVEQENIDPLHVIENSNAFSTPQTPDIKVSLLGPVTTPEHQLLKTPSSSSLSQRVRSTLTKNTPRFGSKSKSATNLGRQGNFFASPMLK
Assay: MgcRacGAP GTPase-activating activity inhibitors, confirmation, biochemical, ADP Hunter fluorescence, primary and confirmatory (AID 624330)
Type: functional
Active and inactive are the calls of the source. The rule behind the calls is not given here.

- molecule: "CCOC(=O)c1[nH]c2ccccc2c1N=C(S)Nc1cccc(C)c1"
  assay.value: "115 µM (active)"
- molecule: "CN(C)c1ccc(/C=C/c2ccc3ccccc3[n+]2C)cc1"
  assay.value: "46.8 µM (active)"
- molecule: "Cc1cc2nc3ccc(N(C)C)cc3[s+]c2cc1N [TOLONIUM CHLORIDE]"
  assay.value: "32.4 µM (active)"
- molecule: "O=C1c2cccc(NCCNCCO)c2C(=O)c2cccc(NCCNCCO)c21"
  assay.value: "41.3 µM (active)"
- molecule: "CCOC(=O)c1oc2cc(O)cc(C)c2c1C"
  assay.value: "21 µM (active)"
- molecule: "CN(C)c1ccc(C=c2c3ccccc3n3c2c2c([n+]3C)CCCC2)cc1"
  assay.value: "38.3 µM (active)"

Identify the measured IC50 of COc1cc(/C=C2\C(=N)N3N=C(CC(=O)N4CCOCC4)SC3=NC2=O)ccc1O for Rac GTPase-activating protein 1 (Homo sapiens, UniProt Q9H0H5). 159 µM (active)

Okay, and O=C(Sc1nnc(O)nc1O)c1ccccc1 ? 224 µM (active)

Okay, and Sc1nnc(-c2ccco2)n1/N=C/c1cccc(Cl)c1Cl ? 95.7 µM (active)

Okay, and CCOC(=O)c1sc(/N=C/c2ccc(O)cc2O)cc1C ? 22.4 µM (active)

Okay, and CC(C)(C)N1C(=O)c2ccc(C(=O)Nc3ccc(O)cc3)cc2C1=O ? 26.8 µM (active)

Where do the numbers come from? From ChEMBL document CHEMBL1201862.
